# procedureDetails: modulators of S6 phosphorylation in cells, primary screen, cell-based, A549, cytoblot, luminescence, serum-stimulated (AID 1158);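 also: serum-stimulated A549 lung adenocarcinoma cells; signal is phosphorylated S6 detected by cytoblot immunostaining with HRP secondary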
# reportedConditions: A549 phospho-S6 cytoblot, 5 h, higher = more signal
Kindly return MET if reported z-score is no lower than -0.05; return NOT MET if it is lower.

smilesRecord	categoryLabel
O=C1C[C@@](C(=O)NCC(F)(F)F)(c2ccc([N+](=O)[O-])cc2)[C@@H](c2ccc(CO)cc2I)N1CC12CC3CC(CC(C3)C1)C2	MET

Task: Could you please find out whether C=CC[C@]1(C(N)=O)N=C(c2ccc(OCCCO)cc2)O[C@H]1c1ccccc1N=[N+]=[N-] has z-score that meets -0.05 or exceeds it?
Result: NOT MET

Task: For COc1cccc(C)c1NC(=O)O[C@H]1[C@H](OC(=O)Nc2ccccc2)[C@@H](OC(=O)Nc2ccccc2)[C@@H](OC)O[C@@H]1CO then?
Result: MET

Task: Queued: CO[C@H]1O[C@H](CO)[C@@H](OC(=O)Nc2ccccc2)[C@@H]2OC(=O)[C@@H](Cc3ccccc3)C/C=C/C[C@H](Cc3ccccc3)C(=O)O[C@@H]12
Result: NOT MET

Task: How about this compound: [N-]=[N+]=NCc1ccccc1C[C@@]1(C(N)=O)N=C(c2ccc(OCCCO)cc2)O[C@@H]1c1ccccc1N=[N+]=[N-]
Result: NOT MET

Task: Same question for C=CCNC(=O)[C@H]1[C@@H]2C(=O)O[C@@H](c3ccccc3)[C@@H](c3ccccc3)N2[C@@H](c2ccc(OCCO)cc2)[C@]12C(=O)N(C(=O)OCCOC)c1ccc(C#CCNC(N)=O)cc12 please.
Result: MET
